# target_or_test_system: T1, His-tagged CEACAM1 (human, UniProt P13688 35-428)
# T1 construct: 45 kDa SPR analyte; also called CEACAM1-HIS; CEACAM1 analyte
# T1 sequence: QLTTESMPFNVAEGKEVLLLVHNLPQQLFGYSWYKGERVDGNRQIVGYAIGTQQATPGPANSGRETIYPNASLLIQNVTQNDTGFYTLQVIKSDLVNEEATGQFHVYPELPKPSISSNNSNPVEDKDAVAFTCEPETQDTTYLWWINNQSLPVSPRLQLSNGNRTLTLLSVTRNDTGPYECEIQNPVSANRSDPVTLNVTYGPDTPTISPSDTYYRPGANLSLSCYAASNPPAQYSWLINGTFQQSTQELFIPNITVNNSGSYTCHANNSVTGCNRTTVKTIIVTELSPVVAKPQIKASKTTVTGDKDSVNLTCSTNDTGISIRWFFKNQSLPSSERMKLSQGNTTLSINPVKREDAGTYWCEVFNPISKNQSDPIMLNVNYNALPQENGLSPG
# method: SPR multi-cycle, IgG captured
experimental_endpoint: relative KD to VH0/Vκ0
// return a plain number; no unit text

{"binder": "VH1/Vκ2 (antibody, IgG4, V domains shown, IgG4 (S241P), kappa) VH: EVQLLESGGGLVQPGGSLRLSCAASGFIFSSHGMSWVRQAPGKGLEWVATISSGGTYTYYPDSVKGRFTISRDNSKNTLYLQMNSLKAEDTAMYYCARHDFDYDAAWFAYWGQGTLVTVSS VL: EIVLTQSPATLSLSPGERATLSCRANSSVSYMYWYQQKPGQAPRPWIYLTSNRATGVPARFSGSGSGTDYTLTISSLEPEDFATYYCQQWSSNPPTFGQGTKLEIK", "relative KD to VH0/Vκ0": 3.4}
{"binder": "VH2/Vκ12 (antibody, IgG4, V domains shown, IgG4 (S241P), kappa) VH: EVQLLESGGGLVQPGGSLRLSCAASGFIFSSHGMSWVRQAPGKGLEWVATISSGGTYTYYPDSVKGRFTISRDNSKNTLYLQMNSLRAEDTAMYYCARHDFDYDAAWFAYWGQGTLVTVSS VL: EIVLTQSPATLSLSPGERATLSCRANSSVSYMYWYQQKPGQAPRPLIYLTSNRATGIPARFSGSGSGTDYTLTISSLEPEDFATYYCQQWSSNPPTFGQGTKLEIK", "relative KD to VH0/Vκ0": 2.7}

[Q] Which relative KD to VH0/Vκ0 value is on record for VH2/Vκ10 (antibody, IgG4, V domains shown, IgG4 (S241P), kappa) VH: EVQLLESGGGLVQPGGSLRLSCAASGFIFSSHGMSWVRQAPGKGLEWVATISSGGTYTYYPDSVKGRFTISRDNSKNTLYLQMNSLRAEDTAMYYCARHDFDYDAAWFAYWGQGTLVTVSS VL: EIVLTQSPATLSLSPGERATLSCRANSSVSYMYWYQQKPGQAPRPWIYLTSNRATGIPARFSGSGSGTDFTLTISSLEPEDFATYYCQQWSSNPPTFGQGTKLEIK ?
[A] 2.1
